meta.source: patent US20200102347A1

Target: T1, NativeRPtag(large)_with_Tags_and_Cys (Thermoanaerobacter tengcongensis)
T1 construct: Unlabeled in anisotropy assays; coupled through the engineered N-terminal Cys to SulfoLink agarose or maleimide plates in column, pull-down and ELISA assays
T1 chain: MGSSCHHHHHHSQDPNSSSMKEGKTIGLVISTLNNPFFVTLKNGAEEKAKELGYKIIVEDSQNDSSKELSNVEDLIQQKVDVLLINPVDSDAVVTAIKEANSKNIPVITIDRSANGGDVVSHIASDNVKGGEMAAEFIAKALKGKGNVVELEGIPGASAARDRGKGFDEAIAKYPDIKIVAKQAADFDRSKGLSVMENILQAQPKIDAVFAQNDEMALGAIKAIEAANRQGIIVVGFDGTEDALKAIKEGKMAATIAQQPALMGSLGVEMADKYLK
Assay: calculated from koff and Kd
No end group written: not given here. *: point of attachment. RhodamineB = CCN(CC)c1ccc2c(-c3ccccc3C(=O)*)c3ccc(=[N+](CC)CC)cc-3oc2c1
Could you please report measured kon for the items listed next?

Worked cases, kon given:
BINDER	kon
RhodamineB-GEKIANFIPAELKLITKENVQ [RPtag(small) p5a]	1.83e+06 M⁻¹ s⁻¹
RhodamineB-KIANFIPAELKLITKANAA [RPtag(small) Nd2, p5a, e18a, v20a, q21a]	3.33e+06 M⁻¹ s⁻¹
RhodamineB-GEKIPNFIPAELKLITKENAQ (built here from the native peptide with the stated change) [RPtag(small) v20a]	1.13e+06 M⁻¹ s⁻¹

Please look at the items below and tell me kon for each one, in order.
1. RhodamineB-GEKIPNFIPAELKLITK [RPtag(small) Cd4]
2. RhodamineB-GEKIPNFIAAELKLITKENVQ [RPtag(small) p9a]

Result:
3.67e+06 M⁻¹ s⁻¹
233000 M⁻¹ s⁻¹

Please look at the items below and tell me kon for each one, in order.
1. RhodamineB-GEKIPNFIPAELKLIAKENVQ [RPtag(small) t16a]
2. RhodamineB-LKLITKENVQ [RPtag(small) Nd11]

Result:
1: 1.25e+06 M⁻¹ s⁻¹; 2: 1.18e+06 M⁻¹ s⁻¹
